# Tgt: T1, his-tagged ROR2 extracellular domain (ROR2-ECD, G&P Biosciences, cat. no. FCL0192) (human, UniProt Q01974 34-403)
# T1 construct: Bought protein; also called human ROR2-ECD; recombinant human ROR2-ECD; not shown: his tag
# Assay Protocol: BLI (Octet), antibody on anti-human IgG Fc sensor, ROR2-ECD 1.56-100 nM as analyte
Property Label: kon
Please give the number followed by its unit.

- Binder: "IgG1-ROR2-A-HC3LC2-FEAR (antibody, V domains shown, Humanized variant) VH: EVQLLESGGGLVQPGGSLRLSCTVSGFSLSSYSMSWVRQAPGKGLEWIGVIYVNSKTWYANWAKGRFTISKTSTTVYLQMNSLRAEDTATYYCARGDAGYTTNSWLWGQGTLVTVSS VL: AFELTQSPSSLSASVGDRVTITCQASESIDNYLSWYQQKPGKAPKLLIYQAFKLASGVPSRFRGSGSGTDFTLTISSLQSEDFATYYCQSYSGISTTAFGGGTEVVIK"
  kon: "560000 M⁻¹ s⁻¹"

In: Reported kon, binder IgG1-ROR2-A-HC1LC1-FEAR (antibody, V domains shown, Humanized variant) VH: QSVLESGGGLVQPGGSLRLSCTVSGFSLSSYSMSWVRQAPGKGLEWIGVIYVNSKTWYANWAKGRFTISKTSTTVDLKITSPTAEDTATYFCARGDAGYTTNSWLWGQGTLVTVSS VL: AFELTQSPSSLSASVGDRVTITCQASESIDNYCSWYQQKPGKAPKLLIYQAFKLASGVPSRFRGSGSGTDFTLTISSLQSEDFATYYCQSYSGISTTAFGGGTEVVIK : ____
Out: 590000 M⁻¹ s⁻¹

In: Quick one: IgG1-ROR2-A-HC4LC2-FEAR (antibody, V domains shown, Humanized variant) VH: EVQLLESGGGLVQPGGSLRLSCTVSGFSLSSYSMSWVRQAPGKGLEWIGVIYVNSKTWYANWAKGRFTISKDNSKNTVYLQMNSLRAEDTATYYCARGDAGYTTNSWLWGQGTLVTVSS VL: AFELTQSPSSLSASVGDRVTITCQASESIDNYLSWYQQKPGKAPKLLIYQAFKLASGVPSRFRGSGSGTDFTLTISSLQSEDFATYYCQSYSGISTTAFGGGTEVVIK
Out: 590000 M⁻¹ s⁻¹
